Each recorded value in this set is attributed to PubChem BioAssay AID743319.

- measured.on: Endoplasmic reticulum aminopeptidase 2 (Homo sapiens) (UniProt Q6P179)
- Sequence (Q6P179 whole entry, looked up): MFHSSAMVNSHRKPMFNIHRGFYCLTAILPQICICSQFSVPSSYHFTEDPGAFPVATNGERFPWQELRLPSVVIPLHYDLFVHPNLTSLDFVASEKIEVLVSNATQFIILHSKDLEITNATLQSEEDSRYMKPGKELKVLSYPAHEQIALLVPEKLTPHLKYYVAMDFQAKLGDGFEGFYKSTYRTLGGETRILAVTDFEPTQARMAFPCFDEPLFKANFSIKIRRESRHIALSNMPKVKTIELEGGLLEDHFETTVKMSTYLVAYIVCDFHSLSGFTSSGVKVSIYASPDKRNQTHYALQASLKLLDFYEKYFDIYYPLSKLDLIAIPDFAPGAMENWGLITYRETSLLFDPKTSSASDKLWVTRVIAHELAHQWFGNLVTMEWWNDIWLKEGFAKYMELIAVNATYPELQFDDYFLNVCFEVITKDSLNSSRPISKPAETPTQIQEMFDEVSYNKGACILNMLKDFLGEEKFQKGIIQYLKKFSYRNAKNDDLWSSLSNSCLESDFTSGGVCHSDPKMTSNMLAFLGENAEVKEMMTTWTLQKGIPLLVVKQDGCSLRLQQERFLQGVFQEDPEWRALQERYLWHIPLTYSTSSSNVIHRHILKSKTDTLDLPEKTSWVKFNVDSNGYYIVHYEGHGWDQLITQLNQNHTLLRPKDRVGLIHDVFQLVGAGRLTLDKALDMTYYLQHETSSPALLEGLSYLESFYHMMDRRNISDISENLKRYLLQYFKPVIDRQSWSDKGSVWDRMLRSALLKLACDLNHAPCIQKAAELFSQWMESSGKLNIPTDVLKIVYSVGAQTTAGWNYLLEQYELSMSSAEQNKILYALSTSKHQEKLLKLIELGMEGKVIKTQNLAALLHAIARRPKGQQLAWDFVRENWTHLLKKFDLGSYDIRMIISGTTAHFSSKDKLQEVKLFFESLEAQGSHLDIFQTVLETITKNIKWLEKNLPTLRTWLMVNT
- measurement.notes: ERAP2 activation by compounds, dose response, selectivity assay for selective ERAP1 modulator project, biochemical, fluorescence plate reader, cherry-picked samples (AID 743319)
- cond: recombinant ERAP2, Arg-AMC cleavage fluorescence, 1 h; at 11 µM (top of the series)
quantity: activation (%)

>  <smiles.data>
CCC(=O)N(C)C[C@@H]1Oc2ncc(C#Cc3ccncc3)cc2C(=O)N([C@@H](C)CO)C[C@@H]1C

>  <quantity>
activation

>  <obs.value>
-17.3

$$$$
>  <smiles.data>
C[C@@H]1CCCCO[C@@H](CN(C)C)[C@@H](C)CN([C@@H](C)CO)C(=O)c2cc(NS(=O)(=O)c3ccc(Cl)cc3)ccc2O1

>  <quantity>
activation

>  <obs.value>
2.17

$$$$
>  <smiles.data>
COc1ccc(CN(C)C[C@H]2OCCCC[C@@H](C)Oc3ccc(NS(=O)(=O)c4cccs4)cc3C(=O)N([C@H](C)CO)C[C@H]2C)cc1

>  <quantity>
activation

>  <obs.value>
3.67

$$$$
>  <smiles.data>
N#Cc1c(N2CCNCC2)nc(-c2ccco2)c2c1CCCC2

>  <quantity>
activation

>  <obs.value>
31.3

$$$$
>  <smiles.data>
Cc1noc(C)c1NC(=O)N(C)C[C@@H]1Oc2c(NC(=O)Nc3ccccc3)cccc2C(=O)N([C@H](C)CO)C[C@@H]1C

>  <quantity>
activation

>  <obs.value>
10.6

$$$$
>  <smiles.data>
COc1ccc(NC(=O)Nc2ccc3c(c2)C(=O)N([C@H](C)CO)C[C@@H](C)[C@H](CN(C)Cc2ccc(C(=O)O)cc2)OCCCC[C@@H](C)O3)cc1

>  <quantity>
activation

>  <obs.value>
12.3

$$$$
>  <smiles.data>
O=C(C[C@H]1CC[C@H]2[C@@H](COC[C@@H](O)CN2C(=O)Nc2cccc(Cl)c2)O1)N1CCCCC1

>  <quantity>
activation

>  <obs.value>
8.71

$$$$

###

Measured activation, listed per entry for reference.
- measured.on: Endoplasmic reticulum aminopeptidase 2 (Homo sapiens) (UniProt Q6P179)
- measurement.notes: ERAP2 activation by compounds, dose response, selectivity assay for selective ERAP1 modulator project, biochemical, fluorescence plate reader, cherry-picked samples (AID 743319)
- cond: recombinant ERAP2, Arg-AMC cleavage fluorescence, 1 h; at 11 µM (top of the series)
quantity: activation (%)

>  <molecule>
C[C@@H]1CCCCO[C@@H](CN(C)C)[C@@H](C)CN([C@@H](C)CO)C(=O)c2cc(NS(=O)(=O)c3ccc(F)cc3)ccc2O1

>  <obs.value>
5.3

$$$$
>  <molecule>
CCn1cc(CN2CCCC(C(=O)Nc3ccc(-c4nc5ccccc5[nH]4)cc3)C2)c(C)n1 (centres undefined)

>  <obs.value>
4.78

$$$$
>  <molecule>
C[C@@H]1CCCCO[C@@H](CN(C)Cc2ccccc2)[C@H](C)CN([C@H](C)CO)C(=O)c2cc(NS(=O)(=O)c3cccs3)ccc2O1

>  <obs.value>
6.39

$$$$
>  <molecule>
O=C(Nc1ccc(C(F)(F)F)cc1)N1[C@@H]2CNC[C@H]1C2c1ccc(-c2ccncc2)cc1 (some centres undefined)

>  <obs.value>
1.51

$$$$

###

- measured.on: UniProtKB Q6P179
- measurement.notes: ERAP2 activation by compounds, dose response, selectivity assay for selective ERAP1 modulator project, biochemical, fluorescence plate reader, cherry-picked samples (AID 743319)
- cond: recombinant ERAP2, Arg-AMC cleavage fluorescence, 1 h

>  <smiles.data>
CCN1[C@@H]2c3ccc(/C=C/c4ccccc4)c(=O)n3C[C@H]1[C@H](CO)[C@H]2C(=O)N1CCOCC1

>  <AC200>
3520 nM

$$$$
>  <smiles.data>
CCc1cc(=O)oc2c(CNCc3c(F)cccc3Cl)c(O)ccc12

>  <AC200>
1870 nM

$$$$
>  <smiles.data>
O=c1ccc2cc(O[C@@H]3O[C@H](CO)[C@@H](O)[C@H](O)[C@H]3O)c(O)cc2o1

>  <AC200>
687 nM

$$$$
>  <smiles.data>
CC(=O)N1[C@@H]2c3ccc(/C=C/c4ccccc4)c(=O)n3C[C@H]1[C@H](CO)[C@H]2C(=O)N1CCOCC1

>  <AC200>
2030 nM

$$$$
